test system: SF-539; test: NCI tumour cell line growth inhibition, 48 h
Active and inactive are the calls of the source. Cut-off read from the data, not from the text of the source: active = GI50 up to about 1.1 µM and inactive = higher.
readout: GI50

For COC(=O)[C@]1(c2cc3ccccc3[nH]2)CC2CN(CC(=O)N(C)OC)C1C1OC(C)(C)OC21 (stereo not given in full) , what is its reported GI50?
> 100 µM (inactive)

For NC(=O)c1csc(C2OC(CO)C(O)C2O)n1 (stereo not given) , what is its reported GI50?
20.3 µM (inactive)

For `CCCCCCCC(=O)OC[n+]1cccc(-c2c(COC(=O)NC(C)C)c(COC(=O)NC(C)C)c3n2CCC3)c1` , what is its reported GI50?
33.7 µM (inactive)

For `COC(=O)c1ccc(/N=N/N(C)CO)cc1` , what is its reported GI50?
57.4 µM (inactive)

For `COc1ccc(/C=C(\C#N)c2nc(N)nc(N3N=C(C)CC3(C)C)n2)c(O)c1` , what is its reported GI50?
15.7 µM (inactive)

For `Cc1oc2nc(N(C)C)nc(Cl)c2c1C` , what is its reported GI50?
> 100 µM (inactive)

For `O=C1CC2(CCNCC2)C(=O)N1N1CCCCC1` , what is its reported GI50?
> 100 µM (inactive)

For `O=C1C(c2ccccc2)=[N+]([O-])c2cc([N+](=O)[O-])c(/C(Cl)=C/c3ccccc3)cc21` , what is its reported GI50?
23.8 µM (inactive)

For `Cc1ccc(Nc2nc(NNC(=O)Cc3ccccc3)nc(NNC(=O)c3ccncc3)n2)cc1` , what is its reported GI50?
> 10 µM (inactive)

For `O=C(O)CCN(CCC(=O)O)c1ccc(/C=C2\SC(=S)NC2=O)cc1` , what is its reported GI50?
> 100 µM (inactive)

Reference source: ChEMBL document CHEMBL1201862
